Assay: NCI Yeast Anticancer Drug Screen. Data for the mlh1 rad18 strain (AID 175)
Details: S. cerevisiae mlh1 rad18 strain growth inhibition; at 5.0 µM (retest, dose inferred, filed as 0.5)
Protocol: Growth inhibition of yeast strains with defined genetic alterations is measured as a screen for potential anti-cancer activity. Selected strains with alterations in DNA damage repair or cell cycle control were exposed to compounds and growth inhibition was measured relative to vehicle treated controls. The strain used in this assay is mlh1 rad18
About 79,000 compounds went through this panel and 15% of them were active in at least one assay; those are over-represented in the sample as a whole. Activity calls are given as the source filed them. No stated cut-off is given here; in the data, active means growth inhibition above about 70%; inactive means the rest.
Outcomes you can answer with include only these: active, inactive

Take a look at these entries with their results.
// return assay outcome for CC(C)O[C@H]1N(C2CC(N=[N+]=[N-])C(CO)O2)C(=O)NC(=O)[C@]1(C)Br (stereo not given in full)
inactive

Then what about the molecule `CC(C)(CC#N)c1cc(CC(C)(C)c2cc(CC(C)(C)c3cc(CC(C)(C)C4(C)OCCO4)no3)no2)no1` ?
inactive

Then what about the molecule COc1ccccc1C1C(Cl)C(=O)N1n1cnc2ccccc2c1=O (stereo not given) ?
inactive

Then what about the molecule `CCCCC(=O)OC1=C(Br)C(=O)c2ccccc2C1=O` ?
inactive

Then what about the molecule `CC(C)(C)C(=O)CC(=O)C(F)(F)C(F)(F)C(F)(F)F.CC(C)(C)C(=O)CC(=O)C(F)(F)C(F)(F)C(F)(F)F.CC(C)(C)C(=O)CC(=O)C(F)(F)C(F)(F)C(F)(F)F.[Gd]` ?
inactive

Could you now consider this next molecule?
// return assay outcome for CNCC(O)c1cccc(O)c1 (stereo not given)
inactive
